Target: LRH-1 LBD (Homo sapiens, UniProt O00482)
Construct: LRH-1 LBD (residues 299-541) in the pMSC7 vector was expressed in BL21 (DE3) pLysS E. coli; made in house; host or cells: E. coli BL21 (DE3) pLysS
Sequence (O00482 299-541): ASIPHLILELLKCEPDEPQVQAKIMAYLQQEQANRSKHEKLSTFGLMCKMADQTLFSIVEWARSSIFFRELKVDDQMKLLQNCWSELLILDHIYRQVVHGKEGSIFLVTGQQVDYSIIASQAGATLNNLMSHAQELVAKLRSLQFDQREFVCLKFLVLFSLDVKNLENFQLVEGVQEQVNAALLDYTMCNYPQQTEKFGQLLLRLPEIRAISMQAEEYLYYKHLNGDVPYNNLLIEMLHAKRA
Experiment: Thermofluor (DSF) assay, purified LRH-1 LBD-His protein
Type: binding
Details: 50 μM compound; relative to DLPC-bound LRH-1; read-out: ΔTm (mean +/− SEM) (° C.)
Method: Thermofluor assays—Purified LRH-1 LBD-His protein (0.2 mg/ml) was incubated overnight with 50 μM of each compound at 4° C. The final DMSO concentration in the reactions was 1%. SYPRO orange dye (Invitrogen) was then added at a 1:1000 dilution. […] Data were analyzed by first subtracting baseline fluorescence (ligands+SYPRO with no protein) and then fitting the curves using the Bolzman equation (GraphPad Prism, v6) to determine the Tm. […]

{"Compound": "C=C(c1ccccc1)[C@@]12CC[C@H](OS(N)(=O)=O)C1CC(CCCCCC)=C2c1ccccc1 (stereo partly drawn) [Compound 28-endo]", "Value Units": "°C", "Censoring Sign": "=", "ΔTm at 50 µM": 8}
{"Compound": "C=C(c1ccccc1)[C@@]12CC[C@@H](NC(C)=O)C1CC(CCCCCC)=C2c1ccccc1 (stereo partly drawn) [Compound 35-exo]", "Value Units": "°C", "Censoring Sign": "=", "ΔTm at 50 µM": -1.1}
{"Compound": "C=C(c1ccccc1)[C@@]12CC[C@@H](O)C1CC(CCCCCC)=C2c1cc(N)ccc1C (mixture of isomers) [Compound 17g]", "Value Units": "°C", "Censoring Sign": "<", "ΔTm at 50 µM": 1}
{"Compound": "C=C(c1ccc(O)cc1)[C@@]12CC[C@@H](O)C1CC(CCCCCC)=C2c1ccccc1 (mixture of isomers) [Compound 23b]", "Value Units": "°C", "Censoring Sign": "<", "ΔTm at 50 µM": 1}
{"Compound": "C=C(c1ccccc1)[C@@]12CC[C@H](NC(C)=O)C1CC(CCCCCC)=C2c1ccccc1 (stereo partly drawn) [Compound 35-endo]", "Value Units": "°C", "Censoring Sign": "=", "ΔTm at 50 µM": 0.4}
{"Compound": "C=C(c1ccccc1)C12CC[C@@H](O)C1CC(CCCCCC)=C2c1cccc(O)c1 (mixture of isomers) [Compound 15f]", "Value Units": "°C", "Censoring Sign": "=", "ΔTm at 50 µM": 1.4}
{"Compound": "C=C(c1ccccc1)[C@@]12CC[C@@H](O)[C@@H]1CC(CCCCCCC(=O)O)=C2c1ccccc1 (relative stereo)", "Value Units": "°C", "Censoring Sign": "=", "ΔTm at 50 µM": 3.7}

###

Molecular target: LRH-1 (Homo sapiens)
Construct: The transfected plasmids included full-length LRH-1 in a pCI vector; expressed in transfected cells; host or cells: HeLa
Sequence (O00482 whole entry): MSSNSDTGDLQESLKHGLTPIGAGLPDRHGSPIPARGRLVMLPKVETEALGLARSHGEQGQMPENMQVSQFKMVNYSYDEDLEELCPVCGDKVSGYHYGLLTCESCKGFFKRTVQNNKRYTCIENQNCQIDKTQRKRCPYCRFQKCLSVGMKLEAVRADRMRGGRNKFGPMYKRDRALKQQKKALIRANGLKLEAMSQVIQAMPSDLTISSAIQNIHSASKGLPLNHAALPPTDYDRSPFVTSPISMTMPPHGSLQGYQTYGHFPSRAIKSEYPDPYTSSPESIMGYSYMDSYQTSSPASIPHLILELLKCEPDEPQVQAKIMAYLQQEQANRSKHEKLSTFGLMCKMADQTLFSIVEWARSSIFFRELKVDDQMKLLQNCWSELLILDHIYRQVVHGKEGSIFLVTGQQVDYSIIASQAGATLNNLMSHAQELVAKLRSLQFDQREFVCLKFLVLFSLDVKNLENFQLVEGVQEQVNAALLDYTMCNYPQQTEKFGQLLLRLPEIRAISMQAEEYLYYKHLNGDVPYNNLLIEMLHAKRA
Assay: Luciferase reporter assay (SHP-luc) in HeLa cells transfected with full-length LRH-1
Assay type: cell-based
Settings: fold increase over baseline (DMSO-treated cells) relative to the fold increase induced by RJW100
Property: Relative Efficacy; scope: individual compounds
Attribute Measured: Relative Efficacy

{"Compound": "C=C(c1ccccc1)[C@@]12CC[C@@H](O)C1CC(CCCCCC)=C2c1cc(N)ccc1F (mixture of isomers) [Compound 16g]", "Readout Value": 3.8}
{"Compound": "C=C(c1ccccc1)C12CCC(O)C1CC(CCCCCO)=C2c1ccccc1 (centres unmarked)", "Readout Value": 1.57}
{"Compound": "C=C(c1ccccc1)C12CCC(N)C1CC(CCCCCC)=C2c1ccccc1 (stereo not drawn) [Compound 33-endo]", "Readout Value": 0.56}
{"Compound": "C=C(c1ccccc1)[C@@]12CC[C@@H](O)[C@@H]1CC(CCCCCCCC(=O)OC[C@H](COP(=O)([O-])OCC[N+](C)(C)C)OC(=O)CC)=C2c1ccccc1 [Compound 14d]", "Readout Value": 3.35}
{"Compound": "C=C(c1ccccc1)[C@@]12CC[C@@H](O)C1CC(CCCCCCCCOC(C)=O)=C2c1ccccc1 (stereo partly drawn) [Compound 47-endo]", "Readout Value": 1.48}
{"Compound": "C=C(c1ccccc1)[C@@]12CC[C@@H](O)C1CC(CCCCCCCCOC(C)=O)=C2c1ccccc1 (stereo partly drawn) [Compound 47-exo]", "Readout Value": 3.70}
{"Compound": "C=C(c1ccccc1)C12CCC(O)C1CC(CCCCCCCCCCCOP(=O)([O-])OCC[N+](C)(C)C)=C2c1ccccc1 (centres unmarked) [Compound 12g]", "Readout Value": 0.93}
{"Compound": "C=C(c1ccccc1)C12CCC(O)C1CC(CCCC(=O)O)=C2c1ccccc1 (centres unmarked)", "Readout Value": 1.43}
{"Compound": "C=C(c1ccccc1)C12CCC(O)C1CC(CCCCCOP(=O)([O-])OCC[N+](C)(C)C)=C2c1ccccc1 (centres unmarked)", "Readout Value": 0.00}
{"Compound": "C=C(c1ccccc1)[C@@]12CC[C@@H](O)[C@@H]1CC(CCCCCCCO)=C2c1ccccc1 (relative stereo)", "Readout Value": 1.26}
{"Compound": "C=C(c1ccccc1)[C@@]12CC[C@@H](O)[C@@H]1CC(CCCCCCCCO)=C2c1ccccc1 (relative stereo)", "Readout Value": 1.52}
{"Compound": "C=C(c1ccccc1)[C@@]12CC[C@@H](O)C1CC(CCCCCC)=C2c1cc(O)ccc1F (mixture of isomers) [Compound 16f]", "Readout Value": 0.9}
{"Compound": "C=C(c1ccccc1)[C@@]12CC[C@@H](O)[C@@H]1CC(CCCCCCCC(=O)O)=C2c1ccccc1 (relative stereo)", "Readout Value": 2.48}
{"Compound": "C=C(c1ccccc1)C12CCC(C#N)C1CC(CCCCCC)=C2c1ccccc1 (stereo not drawn) [Compound 32-endo]", "Readout Value": 0}
